- Assayed system: Taste receptor type 2 member 38 (Homo sapiens)
- Sequence (P59533 whole entry): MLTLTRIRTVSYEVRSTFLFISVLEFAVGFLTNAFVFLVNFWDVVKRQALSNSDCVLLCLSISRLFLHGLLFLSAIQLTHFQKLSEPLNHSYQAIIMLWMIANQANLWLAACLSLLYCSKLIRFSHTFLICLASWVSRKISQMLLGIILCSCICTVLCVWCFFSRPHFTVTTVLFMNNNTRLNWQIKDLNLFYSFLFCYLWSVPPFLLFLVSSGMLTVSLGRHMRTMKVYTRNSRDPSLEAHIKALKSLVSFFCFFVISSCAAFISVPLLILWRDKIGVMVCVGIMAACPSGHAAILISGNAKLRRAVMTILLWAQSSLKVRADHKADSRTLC
- Assay remarks: Activity at human TAS2R38 expressed in HEK-293T-Galpha16-gustducin44 cells assessed as effect on calcium response by FLIPR assay
Listed here are molecules together with their documented EC50.
Quick reminder: number only, in µM, skip the unit.

Problem: Consider the molecule NC(=S)Nc1ccccc1 [PHENYLTHIOUREA] and give its measured EC50.
Result: 2

Problem: How about this molecule: CCCc1cc(=O)[nH]c(=S)[nH]1 [PROPYLTHIOURACIL]
Result: 2

---

Listed here are molecules together with their documented Activity.
- Assayed system: Taste receptor type 2 member 16 (Homo sapiens)
- Sequence (whole entry): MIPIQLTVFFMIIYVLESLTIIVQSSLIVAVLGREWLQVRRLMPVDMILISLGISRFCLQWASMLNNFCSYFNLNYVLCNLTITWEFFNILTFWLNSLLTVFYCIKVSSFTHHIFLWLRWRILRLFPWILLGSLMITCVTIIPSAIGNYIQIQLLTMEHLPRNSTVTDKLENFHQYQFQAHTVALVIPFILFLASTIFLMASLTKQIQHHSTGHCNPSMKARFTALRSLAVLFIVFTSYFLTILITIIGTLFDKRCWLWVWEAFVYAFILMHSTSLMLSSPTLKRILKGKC
- Assay remarks: Activity at human TAS2R16 expressed in HEK293/15 cells assessed as threshold concentration of compound at which point receptor detects compounds by measuring calcium response by FLIPR assay
- Format: functional, cell-based
Quick reminder: number only, in mM, skip the unit.

>>> df
                                   molecule                            assayed_system  obs_value
0  OC[C@H]1O[C@@H](Oc2ccc(O)cc2)[C@H](O)[C@@H](O)[C@@H]1O [ARBUTIN]  Taste receptor type 2 member 16 (Homo sapiens)        0.5
1  O=[N+]([O-])c1ccccc1O[C@@H]1O[C@H](CO)[C@@H](O)[C@H](O)[C@H]1O  Taste receptor type 2 member 16 (Homo sapiens)        1.5
2  OC[C@H]1O[C@@H](Oc2ccccc2)[C@H](O)[C@@H](O)[C@@H]1O  Taste receptor type 2 member 16 (Homo sapiens)       0.07
3  N#C[C@H](O[C@@H]1O[C@H](CO[C@@H]2O[C@H](CO)[C@@H](O)[C@H](O)[C@H]2O)[C@@H](O)[C@H](O)[C@H]1O)c1ccccc1 [AMYGDALIN]  Taste receptor type 2 member 16 (Homo sapiens)        2.3
4  OC[C@H]1O[C@@H](Oc2ccc3ccccc3c2)[C@H](O)[C@@H](O)[C@@H]1O  Taste receptor type 2 member 16 (Homo sapiens)        0.4

Problem: Consider the molecule O=Cc1ccccc1O[C@@H]1O[C@H](CO)[C@@H](O)[C@H](O)[C@H]1O [HELICIN] and give its measured Activity.
Result: 0.3

Problem: How about this molecule: O=c1ccc2cc(O[C@@H]3O[C@H](CO)[C@@H](O)[C@H](O)[C@H]3O)c(O)cc2o1 [ESCULIN]
Result: 4

Problem: How about this molecule: CO[C@@H]1O[C@H](CO)[C@@H](O)[C@H](O)[C@H]1O
Result: 15

Problem: How about this molecule: OCc1ccccc1O[C@@H]1O[C@H](CO)[C@@H](O)[C@H](O)[C@H]1O [SALICIN]
Result: 0.07

---

- Assayed system: Taste receptor type 2 member 16 (Homo sapiens) (UniProt Q9NYV7)
- Assay remarks: Activity at human TAS2R16 expressed in HEK-293T-Galpha16-gustducin44 cells assessed as threshold concentration of compound at which point receptor detects compounds by measuring calcium response by FLIPR assay
- Assay type: functional, cell-based
Listed here are molecules together with their documented Activity.
Quick reminder: number only, in mM, skip the unit.

                              smiles_record  quantity  obs_value
0  O=Cc1ccccc1O[C@@H]1O[C@H](CO)[C@@H](O)[C@H](O)[C@H]1O  Activity        0.3

Next up:
Problem: Consider the molecule OC[C@H]1O[C@@H](Oc2ccccc2)[C@H](O)[C@@H](O)[C@@H]1O and give its measured Activity.
Result: 0.07

---

- Assayed system: UniProt Q9NYV7
- Assay remarks: Activity at human TAS2R16 expressed in HEK293/15 cells assessed as effect on calcium response by FLIPR assay
- Format: functional, cell-based
Quantity: EC50 (µM)
Quick reminder: number only, in µM, skip the unit.

Below, 5 compounds whose answers are already recorded.
In [3]: df
Out[3]:
                              smiles_record  quantity  uom  obs_value
0  OC[C@H]1O[C@@H](Oc2ccc3ccccc3c2)[C@H](O)[C@@H](O)[C@@H]1O      EC50   µM       1000
1  OCc1ccccc1O[C@@H]1O[C@H](CO)[C@@H](O)[C@H](O)[C@H]1O      EC50   µM       1400
2  OC[C@H]1O[C@@H](Oc2ccc(O)cc2)[C@H](O)[C@@H](O)[C@@H]1O      EC50   µM       5800
3  OC[C@H]1O[C@@H](Oc2ccccc2)[C@H](O)[C@@H](O)[C@@H]1O      EC50   µM       1100
4  O=Cc1ccccc1O[C@@H]1O[C@H](CO)[C@@H](O)[C@H](O)[C@H]1O      EC50   µM       2300

Next up:
Problem: Consider the compound N#C[C@H](O[C@@H]1O[C@H](CO[C@@H]2O[C@H](CO)[C@@H](O)[C@H](O)[C@H]2O)[C@@H](O)[C@H](O)[C@H]1O)c1ccccc1 and give its measured EC50.
Result: 20000

---

- Assayed system: Taste receptor type 2 member 10 (Homo sapiens)
- Sequence (Q9NYW0 whole entry): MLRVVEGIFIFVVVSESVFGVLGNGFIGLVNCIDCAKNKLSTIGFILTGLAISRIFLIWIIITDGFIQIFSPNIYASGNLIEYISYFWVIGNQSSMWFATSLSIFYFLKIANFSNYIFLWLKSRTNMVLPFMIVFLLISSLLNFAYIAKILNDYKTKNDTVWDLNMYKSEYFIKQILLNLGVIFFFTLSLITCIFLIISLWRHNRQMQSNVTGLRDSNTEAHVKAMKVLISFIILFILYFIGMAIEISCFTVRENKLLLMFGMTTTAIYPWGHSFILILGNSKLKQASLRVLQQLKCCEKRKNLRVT
- Assay remarks: Activity at human TAS2R10 expressed in HEK-293T-Galpha16-gustducin44 cells assessed as effect on calcium response by FLIPR assay
Listed here are molecules together with their documented EC50.
Quick reminder: number only, in µM, skip the unit.

Below, 2 molecules whose answers are already recorded.
                                   molecule  uom  obs_value
0  CC[N+](CC)(CC(=O)Nc1c(C)cccc1C)Cc1ccccc1 [DENATONIUM BENZOATE]   µM         70
1  COc1cc2c(cc1OC)[C@@]13CCN4CC5=CCO[C@H]6CC(=O)N2[C@H]1[C@H]6[C@H]5C[C@H]43   µM         60

Next up:
Problem: Consider the molecule O=C1C[C@@H]2OCC=C3CN4CC[C@]56c7ccccc7N1[C@H]5[C@H]2[C@H]3C[C@H]46 and give its measured EC50.
Result: 40

---

- Assayed system: UniProtKB Q9NYW0
- Assay remarks: Activity at human TAS2R10 expressed in HEK-293T-Galpha16-gustducin44 cells assessed as threshold concentration of compound at which point receptor detects compounds by measuring calcium response by FLIPR assay
- Type: functional, cell-based
Quantity: Activity

Compound	Obs value
CC1=C[C@@H]2[C@@H]3C4C(=C(C)[C@@H]3[C@@]13[C@@H]2[C@@](C)(O)CC[C@H]1[C@H](C)C(=O)O[C@@H]13)[C@H]1OC(=O)[C@@H](C)[C@@H]1CC[C@]4(C)O (some centres undefined)	0.01 mM
O=C1C[C@@H]2OCC=C3CN4CC[C@]56c7ccccc7N1[C@H]5[C@H]2[C@H]3C[C@H]46 [STRYCHNINE]	0.003 mM
CC[N+](CC)(CC(=O)Nc1c(C)cccc1C)Cc1ccccc1 [DENATONIUM BENZOATE]	0.003 mM

Problem: Consider the compound COc1cc2c(cc1OC)[C@@]13CCN4CC5=CCO[C@H]6CC(=O)N2[C@H]1[C@H]6[C@H]5C[C@H]43 [BRUCINE] and give its measured Activity.
Result: 0.01 mM

---

- Assayed system: Taste receptor type 2 member 16 (Homo sapiens) (UniProt Q9NYV7)
- Assay remarks: Activity at human TAS2R16 expressed in HEK-293T-Galpha16-gustducin44 cells assessed as threshold concentration of compound at which point receptor detects compounds by measuring calcium response by FLIPR assay
- Type: functional, cell-based
Listed here are compounds together with their documented log10(Activity).
Scale: log10; quantity: Activity; unit before log: mM

Below, 5 compounds whose answers are already recorded.
                              smiles_record  obs_value
0  OC[C@H]1O[C@@H](Oc2ccc(O)cc2)[C@H](O)[C@@H](O)[C@@H]1O      -0.30
1  O=c1ccc2cc(O[C@@H]3O[C@H](CO)[C@@H](O)[C@H](O)[C@H]3O)c(O)cc2o1       0.60
2  N#C[C@H](O[C@@H]1O[C@H](CO[C@@H]2O[C@H](CO)[C@@H](O)[C@H](O)[C@H]2O)[C@@H](O)[C@H](O)[C@H]1O)c1ccccc1       0.36
3  CO[C@@H]1O[C@H](CO)[C@@H](O)[C@H](O)[C@H]1O       1.18
4  OC[C@H]1O[C@@H](Oc2ccc3ccccc3c2)[C@H](O)[C@@H](O)[C@@H]1O      -0.40

Next up:
Problem: Consider the compound OCc1ccccc1O[C@@H]1O[C@H](CO)[C@@H](O)[C@H](O)[C@H]1O and give its measured log10(Activity).
Result: -1.15
